- System Under Test: CDK9–cyclin T (Homo sapiens)
- Construct: purchased Thermo Fisher
- Sequence (P50750 whole entry): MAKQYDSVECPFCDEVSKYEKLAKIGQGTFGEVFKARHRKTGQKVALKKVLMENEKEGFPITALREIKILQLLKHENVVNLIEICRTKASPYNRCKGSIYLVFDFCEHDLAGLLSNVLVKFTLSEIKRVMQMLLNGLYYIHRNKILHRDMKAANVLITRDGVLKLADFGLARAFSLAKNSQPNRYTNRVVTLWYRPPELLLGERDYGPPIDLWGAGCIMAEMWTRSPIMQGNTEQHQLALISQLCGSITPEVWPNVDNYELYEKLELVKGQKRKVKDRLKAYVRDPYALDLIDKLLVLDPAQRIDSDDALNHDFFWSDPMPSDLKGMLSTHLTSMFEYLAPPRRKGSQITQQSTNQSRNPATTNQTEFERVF
- Sequence (O60563 whole entry partner): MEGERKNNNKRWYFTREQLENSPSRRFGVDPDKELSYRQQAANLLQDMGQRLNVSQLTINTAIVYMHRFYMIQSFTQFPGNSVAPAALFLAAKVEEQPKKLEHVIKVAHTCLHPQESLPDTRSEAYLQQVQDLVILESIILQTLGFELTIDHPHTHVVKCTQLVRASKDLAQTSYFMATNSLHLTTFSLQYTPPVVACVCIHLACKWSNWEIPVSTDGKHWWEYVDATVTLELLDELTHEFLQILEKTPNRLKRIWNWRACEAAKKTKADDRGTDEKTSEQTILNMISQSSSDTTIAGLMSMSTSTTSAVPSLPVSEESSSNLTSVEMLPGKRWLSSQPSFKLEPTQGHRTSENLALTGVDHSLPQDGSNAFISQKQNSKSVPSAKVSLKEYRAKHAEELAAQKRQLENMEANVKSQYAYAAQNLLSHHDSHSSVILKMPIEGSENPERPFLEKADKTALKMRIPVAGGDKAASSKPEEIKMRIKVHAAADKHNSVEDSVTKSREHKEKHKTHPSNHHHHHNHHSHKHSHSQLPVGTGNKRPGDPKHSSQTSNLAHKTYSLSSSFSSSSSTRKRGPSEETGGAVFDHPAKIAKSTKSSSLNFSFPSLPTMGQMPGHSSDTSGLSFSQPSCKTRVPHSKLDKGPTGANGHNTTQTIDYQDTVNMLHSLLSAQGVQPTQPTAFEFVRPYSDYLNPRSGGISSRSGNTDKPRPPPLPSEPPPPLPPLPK
- Assay Name: Lanthascreen kinase binding assay, CDK9
- Protocol Conditions: Lanthascreen, average; Extended Data Fig. 8; read-out: CDK9 IC50
Value Type: IC50

// below: answered compounds
COc1ccc(C)cc1N1C[C@@H](C(=O)Nc2nc3ccccc3[nH]2)CC1=O	> 10 µM
CC[C@H](CO)Nc1nc(NCc2nc3cc(Cl)c(Cl)cc3[nH]2)c2ncn(-c3cnn(C)c3)c2n1	> 10 µM
CC[C@H](CO)Nc1nc(NCc2nc3c(F)c(F)ccc3[nH]2)c2ncn(C(C)C)c2n1	> 10 µM

The record that follows has no IC50 shown yet.
Briefly, IC50 measured for C[C@H](C(=O)Nc1nc2ccccc2[nH]1)N1Cc2ccccc2C1=O : 0.12 µM
